biological target: SMARCA2-HiBiT HeLa cells (protein which is expressed from the SMARCA2 gene) (Homo sapiens, UniProt P51531); construct: protein which is expressed from the SMARCA2 and SMARCA4 genes; host or cells: HeLa (SMARCA2-HiBiT engineered line); test: SMARCA2 degradation assay (HiBiT-fusion HeLa cell line, 24 h, luminescence); type: cell-based
Sequence (P51531 whole entry, the tested form may be a part): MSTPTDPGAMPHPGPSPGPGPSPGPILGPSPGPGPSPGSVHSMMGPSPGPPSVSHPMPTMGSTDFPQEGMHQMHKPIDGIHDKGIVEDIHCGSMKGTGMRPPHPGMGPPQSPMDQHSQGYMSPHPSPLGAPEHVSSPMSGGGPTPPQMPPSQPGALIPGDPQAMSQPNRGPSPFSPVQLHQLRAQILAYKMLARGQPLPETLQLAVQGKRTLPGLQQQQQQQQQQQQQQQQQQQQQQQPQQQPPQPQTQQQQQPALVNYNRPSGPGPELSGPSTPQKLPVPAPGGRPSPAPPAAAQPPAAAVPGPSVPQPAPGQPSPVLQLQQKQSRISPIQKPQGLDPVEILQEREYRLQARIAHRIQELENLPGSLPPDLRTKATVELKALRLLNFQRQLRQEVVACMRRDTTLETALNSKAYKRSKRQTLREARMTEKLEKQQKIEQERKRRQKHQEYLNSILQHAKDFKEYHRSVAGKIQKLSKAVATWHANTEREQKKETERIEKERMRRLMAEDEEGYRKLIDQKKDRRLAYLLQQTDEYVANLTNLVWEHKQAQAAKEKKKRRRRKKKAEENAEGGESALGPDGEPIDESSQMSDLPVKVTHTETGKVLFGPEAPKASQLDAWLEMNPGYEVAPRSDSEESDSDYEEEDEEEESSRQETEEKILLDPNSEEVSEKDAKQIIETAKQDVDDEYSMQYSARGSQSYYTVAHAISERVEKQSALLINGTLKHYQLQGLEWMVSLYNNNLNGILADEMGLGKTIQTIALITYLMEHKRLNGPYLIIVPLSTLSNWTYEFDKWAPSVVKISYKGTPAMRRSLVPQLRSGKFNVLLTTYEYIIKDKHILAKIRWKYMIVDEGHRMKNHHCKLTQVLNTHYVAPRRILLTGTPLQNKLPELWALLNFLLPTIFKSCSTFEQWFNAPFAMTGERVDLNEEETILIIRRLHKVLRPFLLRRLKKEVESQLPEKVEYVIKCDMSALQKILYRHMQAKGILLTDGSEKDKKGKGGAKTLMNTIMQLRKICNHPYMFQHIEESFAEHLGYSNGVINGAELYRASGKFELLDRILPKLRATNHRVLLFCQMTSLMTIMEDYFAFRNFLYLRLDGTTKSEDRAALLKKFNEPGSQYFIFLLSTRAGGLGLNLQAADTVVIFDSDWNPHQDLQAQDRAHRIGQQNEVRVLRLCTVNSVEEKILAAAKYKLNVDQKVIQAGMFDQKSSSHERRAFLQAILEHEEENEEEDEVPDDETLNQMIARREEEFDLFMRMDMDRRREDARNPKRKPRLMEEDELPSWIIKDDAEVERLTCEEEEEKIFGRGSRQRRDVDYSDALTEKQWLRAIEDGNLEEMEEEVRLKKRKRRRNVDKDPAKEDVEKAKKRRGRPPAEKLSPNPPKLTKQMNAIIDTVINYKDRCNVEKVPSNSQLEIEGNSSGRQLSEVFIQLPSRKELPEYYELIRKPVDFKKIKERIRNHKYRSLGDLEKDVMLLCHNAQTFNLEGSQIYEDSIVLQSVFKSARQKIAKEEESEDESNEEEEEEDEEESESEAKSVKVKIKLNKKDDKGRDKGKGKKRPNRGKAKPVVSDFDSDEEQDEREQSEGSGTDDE
quantity kind: DC50

CN(C)CC#Cc1nccc(N2C3CCC2CN(c2cc(-c4ccccc4O)nnc2N)CC3)n1 (stereo not drawn): < 50 nM
CN(C)c1cc(N2CCCN(c3cc(-c4ccccc4O)nnc3N)CC2)nc(C#CCNC(=O)c2cc3ncccn3n2)n1: 50 to 500 nM
CC1(F)CCN(CC#Cc2nccc(N3C4CCC3CN(c3cc(-c5ccccc5O)nnc3N)C4)n2)C1 (stereo not drawn): < 50 nM
Nc1nnc(-c2ccccc2O)cc1N1CC2CCC(C1)N2c1ccnc(C#CCNc2nc3ccccc3o2)n1: 50 to 500 nM
Nc1nnc(-c2ccccc2O)cc1N1CCCN(c2ccnc(C#CCN3CCCCC3)n2)CC1: 50 to 500 nM
N#CC1CCN(CC#Cc2nccc(N3CCCN(c4cc(-c5ccccc5O)nnc4N)CC3)n2)CC1: 50 to 500 nM
CNC/C=C/c1nccc(N2CCN(c3cc(-c4ccccc4O)nnc3N)CC[C@H]2C)n1: 50 to 500 nM
Nc1nnc(-c2ccccc2O)cc1N1CCCN(c2ccnc(C#CC3CCOC3)n2)CC1 (stereo not drawn): 50 to 500 nM
CCC1CN(c2ccnc(C#CCNC(=O)c3cc4ncccn4n3)n2)CCN1c1cc(-c2ccccc2O)nnc1N (stereo not drawn): 50 to 500 nM
Nc1nnc(-c2ccccc2O)cc1N1CCCN(c2ccnc(C#CC3CC3)n2)CC1: 50 to 500 nM

Enquiry: Please look at this compound and report its DC50: `COC[C@@H](C)NCC#Cc1nccc(N2CCCN(c3cc(-c4ccccc4O)nnc3N)CC2)n1`
Return: 50 to 500 nM

Enquiry: Give recorded DC50. `Nc1nnc(-c2ccccc2O)cc1-c1cnn(C2CN(c3ccnc(C#CCn4ccnc4)n3)C2)c1`
Return: 50 to 500 nM

Enquiry: Using known records, supply DC50 for `Nc1nnc(-c2ccccc2O)cc1N1CCN(c2ccnc(C#CCNC(=O)c3noc4ccccc34)n2)CC1`
Return: 50 to 500 nM

----------
biological target: SMARCA2-HiBiT HeLa cells (protein which is expressed from the SMARCA2 gene) (Homo sapiens); construct: protein which is expressed from the SMARCA2 and SMARCA4 genes; host or cells: HeLa (SMARCA2-HiBiT engineered line); assay: SMARCA2 degradation assay (HiBiT-fusion HeLa cell line, 24 h, luminescence); assay type: cell-based; conditions: @ 1 μM
quantity kind: SMARCA2 % Degradation @ 1 μM

C[C@@H]1CCN(c2cc(-c3ccccc3O)nnc2N)CCN1c1ccnc(/C=C/CO)n1 [Compound P-168]: +++ (+++=>70%)
Nc1nnc(-c2ccccc2O)cc1N1CC2(CCN(c3ccnc(C#CCNC(=O)c4cc5ncccn5n4)n3)CC2)C1 [Compound P-31]: ++ (++=30-70%)
Nc1nnc(-c2ccccc2O)cc1N1CCN(c2ccnc(C#CCNC(=O)c3cc4ncccn4n3)n2)C2CC21 (stereo not drawn) [Compound P-28]: ++ (++=30-70%)
C[C@@H]1CCN(c2cc(-c3ccccc3O)nnc2N)CCN1c1ccnc(C#CCn2cccc2)n1 [Compound P-191]: ++ (++=30-70%)
C[C@@H]1CCN(c2cc(-c3ccccc3O)nnc2N)CCN1c1ccnc(C#CCN2CCOCC2)n1 [Compound P-334]: ++ (++=30-70%)

Enquiry: Identify the reported SMARCA2 % Degradation @ 1 μM for the following entry. Nc1nnc(-c2ccccc2O)cc1N1CCCN(c2ccnc(C#CCO)n2)CC1 [Compound P-125]
Return: ++ (++=30-70%)

Enquiry: Provide one value: measured SMARCA2 % Degradation @ 1 μM of Cc1cc(C(=O)NCC#Cc2nccc(N3CCN(c4cc(-c5ccccc5O)nnc4N)CC3)n2)nn1C [Compound P-12]
Return: ++ (++=30-70%)

Enquiry: Find the measured SMARCA2 % Degradation @ 1 μM of Nc1nnc(-c2ccccc2O)cc1N1CCN(c2ccnc(C#CCNC(=O)c3ccn(C(F)F)n3)n2)CC1 [Compound P-10] and report it.
Return: ++ (++=30-70%)

Enquiry: Find the measured SMARCA2 % Degradation @ 1 μM of Nc1nnc(-c2ccccc2O)cc1N1CC2CCC(C1)N2c1ccnc(C#CCNC(=O)c2cccnc2)n1 [Compound P-241] and report it.
Return: ++ (++=30-70%)

Enquiry: Query SMARCA2 % Degradation @ 1 μM for C[C@@H]1CCN(c2cc(-c3ccccc3O)nnc2N)CCN1c1nc(C#CCNC(=O)OC(C)(C)C)ncc1F [Compound P-248]
Return: ++ (++=30-70%)

Enquiry: Please report SMARCA2 % Degradation @ 1 μM for the following molecule: C[C@@H]1CCN(c2cc(-c3ccccc3O)nnc2N)CCN1c1ccnc(C#CC2CC(F)(F)C2)n1 [Compound P-269]
Return: +++ (+++=>70%)

Enquiry: Return reported SMARCA2 % Degradation @ 1 μM. Input molecule: Nc1nnc(-c2ccccc2O)cc1N1CCC2(CCN(c3ccnc(C#CCNC(=O)c4cc5ncccn5n4)n3)C2)CC1 [Compound P-32]
Return: ++ (++=30-70%)

Enquiry: Using known records, supply SMARCA2 % Degradation @ 1 μM for CN(C)c1cc(N2CCCN(c3cc(-c4ccccc4O)nnc3N)CC2)nc(C#CCNC(=O)c2cc3ncccn3n2)n1 [Compound P-139]
Return: +++ (+++=>70%)

Enquiry: Annotate the molecule Nc1nnc(-c2ccccc2O)cc1N1CCCN(c2ccnc(C#CCn3ccn4nccc4c3=O)n2)CC1 [Compound P-109] with its measured SMARCA2 % Degradation @ 1 μM.
Return: +++ (+++=>70%)

----------
target: SMARCA2-HiBiT HeLa cells (protein which is expressed from the SMARCA2 gene) (Homo sapiens, UniProt P51531); construct: protein which is expressed from the SMARCA2 and SMARCA4 genes; host or cells: HeLa (SMARCA2-HiBiT engineered line); test: SMARCA2 degradation assay (HiBiT-fusion HeLa cell line, 24 h, luminescence); type: cell-based; details: @ 1 μM
quantity kind: SMARCA2 % Degradation @ 1 μM

In the examples that follow, each entry is paired with its recorded SMARCA2 % Degradation @ 1 μM.
Nc1nnc(-c2ccccc2O)cc1N1CCN(c2ccnc(C#CCNC(=O)c3cc4n(n3)CCOC4)n2)CC1: ++ (++=30-70%)
C[C@@H]1CCN(c2cc(-c3ccccc3O)nnc2N)CCN1c1ccnc(C#C[C@@H](O)C2CC2)n1: +++ (+++=>70%)
Cc1nc(C)n(CC#Cc2nccc(N3CCN(c4cc(-c5ccccc5O)nnc4N)CC[C@H]3C)n2)c1C: +++ (+++=>70%)
CN(CC#Cc1nccc(N2CCCN(c3cc(-c4ccccc4O)nnc3N)CC2)n1)c1nc2ccccc2o1: +++ (+++=>70%)
C[C@@H]1CCN(c2cc(-c3ccccc3O)nnc2N)CCN1c1ccnc(/C=C/CN2CCC2)n1: +++ (+++=>70%)

Enquiry: Given the compound `C[C@@H]1CCN(c2cc(-c3ccccc3O)nnc2N)CCN1c1ccnc(C#CCN2CC3CC2C3)n1` , write its reported SMARCA2 % Degradation @ 1 μM.
Return: +++ (+++=>70%)

Enquiry: Consider the compound `CC1(C)COCCN1CC#Cc1nccc(N2CCCN(c3cc(-c4ccccc4O)nnc3N)CC2)n1` . State its measured SMARCA2 % Degradation @ 1 μM.
Return: ++ (++=30-70%)

----------
biological target: SMARCA2-HiBiT HeLa cells (protein which is expressed from the SMARCA2 gene) (Homo sapiens); construct: protein which is expressed from the SMARCA2 and SMARCA4 genes; host or cells: HeLa (SMARCA2-HiBiT engineered line); experiment: SMARCA2 degradation assay (HiBiT-fusion HeLa cell line, 24 h, luminescence); assay type: cell-based; conditions: @ 1 μM
quantity kind: SMARCA2 % Degradation @ 1 μM

Sample records with SMARCA2 % Degradation @ 1 μM:
CC(C)(C)OC(=O)NCC#Cc1nccc(N2CC3=C(C2)CN(c2cc(-c4ccccc4O)nnc2N)C3)n1: ++ (++=30-70%)
Nc1nnc(-c2ccccc2O)cc1N1CCCN(c2ccnc(C#CCn3cncn3)n2)CC1: +++ (+++=>70%)
Nc1nnc(-c2ccccc2O)cc1N1CC2CCC(C1)N2c1ccnc(C#CCn2ccnc2)n1: ++ (++=30-70%)
CN(C)CC#Cc1nccc(N2C3CCC2CN(c2cc(-c4ccccc4O)nnc2N)CC3)n1 (centres unmarked): ++ (++=30-70%)
CN1CCC(C#Cc2nccc(N3CCCN(c4cc(-c5ccccc5O)nnc4N)CC3)n2)CC1: ++ (++=30-70%)

Enquiry: Supply recorded SMARCA2 % Degradation @ 1 μM for `Nc1nnc(-c2ccccc2O)cc1N1CCCN(c2ccnc(C#CCn3ccnc3)n2)CC1` here.
Return: +++ (+++=>70%)

Enquiry: Write down SMARCA2 % Degradation @ 1 μM measured for item `Nc1nnc(-c2cc(F)ccc2O)cc1N1CCCN(c2ccnc(C#CCNC(=O)c3cc4ncccn4n3)n2)CC1`
Return: ++ (++=30-70%)
